Recorded values, source paper PMC7441487.

assay: Cytotoxicity, WST-8 assay (Cell Counting Kit-8); assay type: cell-based; conditions: African green monkey, VeroE6 cells
attribute.measured: CC50 at 3 days

compound="NC(=O)c1nc(F)c[nH]c1=O [Favipiravir, favipiravir]" attribute_measured="CC50 at 3 days" observed_value="> 100 µM"
compound="N=C(N)c1ccc2cc(OC(=O)c3ccc(N=C(N)N)cc3)ccc2c1 [Nafamostat, nafamostat]" attribute_measured="CC50 at 3 days" observed_value="> 100 µM"
compound="CCC(CC)COC(=O)[C@H](C)N[P@](=O)(OC[C@H]1O[C@@](C#N)(c2ccc3c(N)ncnn23)[C@H](O)[C@@H]1O)Oc1ccccc1 [Remdesivir, remdesivir]" attribute_measured="CC50 at 3 days" observed_value="> 100 µM"
compound="C=CCn1ccc2c(C(=O)Oc3cncc(Cl)c3)cccc21 [GRL-0820]" attribute_measured="CC50 at 3 days" observed_value="> 100 µM"
compound="Cc1c(O)cccc1C(=O)N[C@@H](CSc1ccccc1)[C@H](O)CN1C[C@H]2CCCC[C@H]2C[C@H]1C(=O)NC(C)(C)C [Nelfinavir, nelfinavir]" attribute_measured="CC50 at 3 days" observed_value="53 µM"
compound="Cc1cccc(C)c1OCC(=O)N[C@@H](Cc1ccccc1)[C@@H](O)C[C@H](Cc1ccccc1)NC(=O)[C@H](C(C)C)N1CCCNC1=O [Lopinavir, lopinavir]" attribute_measured="CC50 at 3 days" observed_value="51 µM"
compound="CCN(CCO)CCCC(C)Nc1ccnc2cc(Cl)ccc12 (stereo not drawn) [Hydroxychloroquine, hydroxychloroquine]" attribute_measured="CC50 at 3 days" observed_value="> 100 µM"
compound="CC(=O)Oc1ccccc1C(=O)Nc1ncc([N+](=O)[O-])s1 [Nitazoxanide, nitazoxanide]" attribute_measured="CC50 at 3 days" observed_value="88 µM"
compound="O=C(Oc1cncc(Cl)c1)c1cccc2[nH]ccc12 [GRL-0920]" attribute_measured="CC50 at 3 days" observed_value="> 100 µM"
